B1: Pistol ribozyme (parent)
chain: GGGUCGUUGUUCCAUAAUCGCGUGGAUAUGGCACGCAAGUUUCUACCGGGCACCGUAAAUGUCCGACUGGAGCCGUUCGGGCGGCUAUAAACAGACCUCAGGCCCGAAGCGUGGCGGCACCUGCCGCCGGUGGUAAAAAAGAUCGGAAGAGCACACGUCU

variants of: B1; test: aptazyme ON/OFF ratio, guanine; higher = stronger switching; co-transcriptional cleavage with and without guanine
observed-property: aptazyme ON/OFF ratio
Lab note: record just the number, no unit beside it.

# variant U8A G9A U10C U11C C12U C13G ; its aptazyme ON/OFF ratio = 1.05

# variant G9C U10C U11G C12G C13U ; its aptazyme ON/OFF ratio = 1.11

# variant U7A U8C U10G U11A C12G C13G ; its aptazyme ON/OFF ratio = 1.14

# variant U7C U8A G9U U10G U11C C12G ; its aptazyme ON/OFF ratio = 1.26

# variant U7C U8G G9A U10C C12G ; its aptazyme ON/OFF ratio = 1.23

# variant U7A U8G G9U U10A U11C C12U ; its aptazyme ON/OFF ratio = 1.04

# variant U7G U8G U10C U11G C12G C13U ; its aptazyme ON/OFF ratio = 1.32

# variant U7A U8C G9A U11G C12G C13A ; its aptazyme ON/OFF ratio = 1.19

# variant G9C U11A C12U ; its aptazyme ON/OFF ratio = 1.53

# variant U8A G9U U11G C12A C13U ; its aptazyme ON/OFF ratio = 1.23

# variant U7A G9A U10C U11G C13G ; its aptazyme ON/OFF ratio = 1.19

# variant U7G U8C G9A U10C U11A C12G ; its aptazyme ON/OFF ratio = 1.18

# variant U7G U8A G9U U10A C12U ; its aptazyme ON/OFF ratio = 1.03

# variant U7C U8G U10A U11A C12U C13U ; its aptazyme ON/OFF ratio = 1.16

# variant U7A U8G G9C U10G U11A C12U C13U ; its aptazyme ON/OFF ratio = 1.42

# variant U8A G9C U10G U11G C12A C13U ; its aptazyme ON/OFF ratio = 1.21

# variant U7C U8A G9U U10G U11C C13U ; its aptazyme ON/OFF ratio = 1.05

# variant U7C U8C U10G U11A C12A C13G ; its aptazyme ON/OFF ratio = 1.12

# variant U7G G9A U10C U11G C12U C13G ; its aptazyme ON/OFF ratio = 1.11

# variant U7G U8G G9A U10C C12A C13G ; its aptazyme ON/OFF ratio = 1.14

# variant U7C U8C U10C U11G C12A C13U ; its aptazyme ON/OFF ratio = 1.52

# variant U7A U8A G9C C12G C13A ; its aptazyme ON/OFF ratio = 1.19

# credit: the RNAGym collection of RNA variant scans (doi:10.1021/acssynbio.7b00057)
